B1: LINE1-full (parent)
chain: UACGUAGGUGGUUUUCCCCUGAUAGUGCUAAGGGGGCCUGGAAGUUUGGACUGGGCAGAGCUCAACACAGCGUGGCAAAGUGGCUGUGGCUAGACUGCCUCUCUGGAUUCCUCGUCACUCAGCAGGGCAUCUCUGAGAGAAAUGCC

Variants of: B1
assayProcedure: self-cleavage, relative activity (ratio to wild type); higher = more cleavage; in vitro, sequencing; the parent is a self-cleaving ribozyme
propertyLabel: self-cleavage
Reply: number alone, nothing else.

Reference set (5 entries):
INSERT INTO measurements (sequence, measurement) VALUES
  ('UACGUAGGUGGUUUUCCCCUGAUAGUGCUAAGGGGGCCUGGAAGUUUGGACUGGGCAGAGCUCAACACAGCGUGGCAAAGUGGCUGUGGCUGGACUGCCUCUCUGGAUUCCUCGUCACUCGGCAGGGCAUCUCUGAGAGAAAUGCC [A92G A121G]', 0.11),
  ('UACGUAGGUGGUUUUCCCCUGAUAGUGCUAAGGGGGCCUGGAAGUUUGGACUGGGCAGAGCUCAACACAGCGUGGCAAAGUGGCUGUGGCUAGACUGCCUCUCUGGAUUCCUUGUCACUCAGCAGGGCAUCUCUGAGAGAAGUGCC [C113U A142G]', 0.91),
  ('UACGUAGGUGGUUUUCCCCUGAUAGUGCUAAGGGGGCCUGGAAGUUUGGACUGGGCAGAGCACAACACAGCGUGGCAAAGUGGCUGUGGCUAGACUGCCACUCUGGAUUCCUCGUCACUCAGCAGGGCAUCUCUGAGAGAAAUGCC [U62A U100A]', 0.05),
  ('UACGUAGGUGGUUUUCCCCUGAUAGUGCUAAGGGGGCCUGGGAGUUUGGACUGGGCAGAGCUCAACACAGCGUGGCAAAGUGGCUGUGGCUAGACUGCCUCUCUGGAUUCCUCGUCACUCAGCAGGGCAUCUCUGAGGGAAAUGCC [A42G A138G]', 1.34),
  ('UACGUAGGUGGUUUUCCCCUGAUAGUGUUAAGGGGGCCUGGAAGUUUGGACUGGGCUGAGCUCAACACAGCGUGGCAAAGUGGCUGUGGCUAGACUGCCUCUCUGGAUUCCUCGUCACUCAGCAGGGCAUCUCUGAGAGAAAUGCC [C28U A57U]', 0.11);

For the variant shown here, UACGUAGGUGGUUUUCCCCUGAUAGUGCUAAGGGGGCCUGGAAGUUUGGGCUGGGCAGAGCUCAACACAGCGUGGCAAAGUGGCUGUGGCUAGACUGCCUCUCUGGAUUCCUCGUCACUCAGCAGGGCAUCUCAGAGAGAAAUGCC [A50G U134A] , give the reported self-cleavage.
0.68

Recorded self-cleavage of UACGUAGGUGGUUUUCCCCUGAUAGUGCUAAGGGGGCCUGGAAGUUUGGACUGGGCAGAGCUCAACACAGCGUGGCAAGGUGGCUGUGGCUAGACUGCCUCUCUGGAUUCCUCGUCACUCAGCAGGGCAUCACUGAGAGAAAUGCC [A79G U132A] , please.
1.25

# get_value(readout='self-cleavage', item= UACGUAGGUGGUAUUCCCCUGAUAGUGCUAAGGGGGCCUGGAAGUUUGGACUGGGCAGAGCUCAACACAGCGUGGCAAAGUGGCUGUGGCUAGACUGCCUCUCUGGAUUCCUCGUCACUCUGCAGGGCAUCUCUGAGAGAAAUGCC [U13A A121U] )
1.12

// query self-cleavage value for entry UACGUAGGUGGUUUUCCCCUGAUAGUGCUAAGGGGGCCUGGAAGUUUGGACUGGGCAAAGCUCAACACAGCGUGGCAAAGUGGCUGUGGCUAGACUGCCUCUCUGGAUACCUCGUCACUCAGCAGGGCAUCUCUGAGAGAAAUGCC [G58A U109A]
0.04

Which self-cleavage value belongs to UACGUAGGUGGUUUUCCCCUGAUAGUGCUAAGGGGGCCUGAAAGUUUGGACUGGGCAGAGCUCAACACAGCGUGGCAAAGUGGCUGUGGCUAGACUGCCUCUCUGGACUCCUCGUCACUCAGCAGGGCAUCUCUGAGAGAAAUGCC [G41A U108C] ?
1.23

Which measured self-cleavage value corresponds to UACGUAGGUGGUUUUCCCCUGAUAGUGCUAAGGGGGCCUGGAAGUUUGGACUGGGCAGAGCUCAACACAGCGUGGCAUAGUGGCUGUGGCUAGACUGCCUCUCUGGAUACCUCGUCACUCAGCAGGGCAUCUCUGAGAGAAAUGCC [A78U U109A] ?
1.84
